A collection of compounds and their measured solubility at 24 h
assay: physchem; conditions: pH 2.2, aqueous buffer, kinetic from dmso stock, Solubility (pH 2.2)
readout: solubility at 24 h (µg/mL)

| compound | reported measurement |
| --- | --- |
| Cc1c(COc2ccccc2-c2ccnc(N3CC[C@@]4(C(=O)O)C[C@H]4C3)n2)ccc2c1CCN(C1CCOCC1)C2 | 100 |
| Cc1csc(CN2CCc3c(ccc(COc4ccccc4-c4cccc(N5CC[C@@]6(C(=O)O)C[C@H]6C5)n4)c3C)C2)n1 | 157 |
| CO[C@@H]1CN(c2cccc(-c3cc(C)ccc3OCc3cc(C)c4c(c3)CCN(C3CCOCC3)C4)n2)CC[C@@H]1C(=O)O | 130 |
| CO[C@H]1CN(c2nc(-c3cc(C)ccc3OCc3cc(C)c4c(c3)CCN(C3CCOCC3)C4)cs2)CC[C@H]1C(=O)O | 120 |
| Cc1cc(C)c(OCc2ccc3c(c2C)CCN(C2CCOCC2)C3)c(-c2csc(N3C[C@@H]4C[C@]4(C(=O)O)C3)n2)c1 | 110 |
| CO[C@@H]1CN(c2cccc(-c3cccc(C)c3OCc3ccc4c(c3)C(C)(C)CN(C3CCOCC3)CC4)n2)CC[C@@H]1C(=O)O | 134 |
| CO[C@@H]1CN(c2nc(-c3cccc(C)c3OCc3ccc4c(c3F)CCN(C3COC3)CC4)cs2)CC[C@@H]1C(=O)O | 116 |
| Cc1cccc(-c2ccnc(N3C[C@@H]4C[C@]4(C(=O)O)C3)n2)c1OCc1ccc2c(c1C)CCN(C1CCOCC1)C2 | 110 |
| CO[C@@H]1CN(c2cccc(-c3cc(C)ccc3OCc3ccc4c(c3C)CCN(C3CCOCC3)C4)n2)CC[C@@H]1C(=O)O | 120 |
| Cc1nccnc1C(C)N1CCc2c(ccc(COc3ccccc3-c3cccc(N4CC[C@@]5(C(=O)O)C[C@H]5C4)n3)c2C)C1 (stereo partly shown) | 163 |
| COC[C@H]1N(c2cccc(-c3cccc(C)c3OCc3ccc4c(c3)[C@@H](C)CN(C3CCOCC3)CC4)n2)C[C@@H]2C[C@@]21C(=O)O | 136 |
| COC[C@H]1N(c2cccc(-c3cccc(F)c3OCc3ccc4c(c3C)CCN(C3CCOCC3)CC4)n2)C[C@@H]2C[C@@]21C(=O)O | 136 |
| CCO[C@H]1CN(c2nc(-c3cccc(C)c3OCc3cc4c(c(OC)c3)CN(C3CCOCC3)CC4)cs2)CC[C@H]1C(=O)O | 142 |
